Listed here: compounds with reported ΔTm for Mitogen-activated protein kinase kinase kinase 5 (Homo sapiens).

| COMPOUND | ΔTm / °C |
| --- | --- |
| COc1cc2ncnc(Nc3cccc(Br)c3)c2cc1OC | 1.4 |
| Nc1n[nH]c2nnc(-c3c(-c4ccccc4)nn4ccccc34)cc12 | 0.6 |
| CCCCc1c(-c2ccc(O)cc2)[nH]c2nccnc12 [ALOISINE A] | 0.4 |
| COc1cccc(-c2cc(=O)c3ccccc3o2)c1N | -0.1 |
| COc1ccc(CNC(=O)Nc2ncc([N+](=O)[O-])s2)cc1 | -0.4 |
| NS(=O)(=O)c1ccc(Nc2nc(OCC3CCCCC3)c3nc[nH]c3n2)cc1 | 2.4 |
| O=C1Nc2ccc(I)cc2/C1=C1/Nc2ccccc2/C1=N\O | 5.7 |
